Reference for the values: patent US20120136003A1

IC50: recorded values
# system-name: CFTR (Homo sapiens)
# Sequence (P13569 whole entry): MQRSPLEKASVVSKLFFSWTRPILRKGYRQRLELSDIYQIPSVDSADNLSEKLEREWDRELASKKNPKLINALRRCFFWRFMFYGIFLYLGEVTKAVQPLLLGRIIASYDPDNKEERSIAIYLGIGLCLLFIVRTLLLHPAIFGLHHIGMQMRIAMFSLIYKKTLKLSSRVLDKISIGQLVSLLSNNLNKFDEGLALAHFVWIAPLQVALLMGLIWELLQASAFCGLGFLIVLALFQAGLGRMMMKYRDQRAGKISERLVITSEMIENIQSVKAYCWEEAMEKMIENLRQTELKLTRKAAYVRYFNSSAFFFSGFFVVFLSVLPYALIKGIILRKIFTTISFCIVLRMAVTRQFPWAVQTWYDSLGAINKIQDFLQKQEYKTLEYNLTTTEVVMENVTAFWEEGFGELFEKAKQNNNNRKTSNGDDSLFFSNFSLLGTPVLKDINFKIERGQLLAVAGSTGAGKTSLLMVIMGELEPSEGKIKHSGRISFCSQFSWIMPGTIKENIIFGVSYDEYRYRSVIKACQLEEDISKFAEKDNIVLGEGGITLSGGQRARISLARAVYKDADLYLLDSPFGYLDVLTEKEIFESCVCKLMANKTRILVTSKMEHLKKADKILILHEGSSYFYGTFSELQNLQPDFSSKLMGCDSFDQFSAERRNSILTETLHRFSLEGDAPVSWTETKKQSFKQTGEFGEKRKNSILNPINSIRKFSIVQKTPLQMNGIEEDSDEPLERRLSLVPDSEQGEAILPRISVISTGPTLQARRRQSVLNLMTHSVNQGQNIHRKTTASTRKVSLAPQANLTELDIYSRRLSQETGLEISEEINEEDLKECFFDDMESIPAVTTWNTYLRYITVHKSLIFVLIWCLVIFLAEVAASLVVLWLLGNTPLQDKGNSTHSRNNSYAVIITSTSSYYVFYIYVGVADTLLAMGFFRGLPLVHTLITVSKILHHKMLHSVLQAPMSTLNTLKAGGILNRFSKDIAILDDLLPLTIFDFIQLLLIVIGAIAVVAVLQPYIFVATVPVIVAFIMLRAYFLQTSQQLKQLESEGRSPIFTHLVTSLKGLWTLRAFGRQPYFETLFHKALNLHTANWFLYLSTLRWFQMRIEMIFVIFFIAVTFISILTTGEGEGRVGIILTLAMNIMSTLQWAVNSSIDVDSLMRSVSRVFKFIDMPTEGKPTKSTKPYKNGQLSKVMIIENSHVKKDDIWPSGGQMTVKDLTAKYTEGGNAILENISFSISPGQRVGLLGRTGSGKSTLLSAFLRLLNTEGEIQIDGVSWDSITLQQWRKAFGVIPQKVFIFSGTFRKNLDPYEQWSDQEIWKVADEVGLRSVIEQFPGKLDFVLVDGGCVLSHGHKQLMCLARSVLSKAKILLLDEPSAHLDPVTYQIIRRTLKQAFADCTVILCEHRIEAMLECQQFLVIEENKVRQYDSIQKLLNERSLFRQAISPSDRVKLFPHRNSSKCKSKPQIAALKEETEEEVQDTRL
# procedure-summary: T84 assay (FLIPR membrane potential)
# Assay type: cell-based
# Parameters: Human colonic T84 cells are acquired from the European Collection of Cell Cultures (ECACC); host or cells: T84 human colonic cells
Report as a plain number; the unit µM is understood.

Below, 5 compounds whose answers are already recorded.
[[record]]
compound = "CC(C)(C)c1ccc(CNC(=O)c2nnc(-c3cc(Cl)c(O)c(Cl)c3)o2)cc1 [Compound 5]"
system_name = "CFTR (Homo sapiens)"
recorded_metric = "IC50"
unit_of_measure = "µM"
result_number = 7.38

[[record]]
compound = "O=C(NCc1ccc(Oc2ccccc2)cc1)c1nnc(-c2cc(Cl)c(O)c(Cl)c2)o1 [Compound 2]"
system_name = "CFTR (Homo sapiens)"
recorded_metric = "IC50"
unit_of_measure = "µM"
result_number = 3.95

[[record]]
compound = "CN(Cc1ccc(Cl)c(Cl)c1)C(=O)c1nnc(-c2ccc(NS(=O)(=O)C(F)(F)F)cc2)o1 [Compound 17]"
system_name = "CFTR (Homo sapiens)"
recorded_metric = "IC50"
unit_of_measure = "µM"
result_number = 9.62

[[record]]
compound = "CN(Cc1ccc(Cl)c(Cl)c1)C(=O)c1nnc(-c2cc(Cl)c(O)c(Cl)c2)o1 [Compound 12]"
system_name = "CFTR (Homo sapiens)"
recorded_metric = "IC50"
unit_of_measure = "µM"
result_number = 1.88

[[record]]
compound = "O=C(NCc1ccc(F)c(C(F)(F)F)c1)c1nnc(-c2cc(Cl)c(O)c(Cl)c2)o1 [Compound 24]"
system_name = "CFTR (Homo sapiens)"
recorded_metric = "IC50"
unit_of_measure = "µM"
result_number = 19.7


Query :: Any idea what IC50 was measured for O=C(NCc1cc(F)cc(C(F)(F)F)c1)c1nnc(-c2cc(Cl)c(O)c(Cl)c2)o1 [Compound 21] ?
Result :: 13.6

Query :: Please do the same for O=C(NCC(c1ccccc1)c1ccccc1)c1nnc(-c2cc(Cl)c(O)c(Cl)c2)o1 [Compound 15] as well.
Result :: 5.77

Query :: Please do the same for O=C(NCc1cccc(-c2ccccc2)c1)c1nnc(-c2cc(Cl)c(O)c(Cl)c2)o1 [Compound 19] as well.
Result :: 9.89

Query :: Please do the same for O=C(NC(c1ccccc1)c1ccccc1)c1nnc(-c2cc(Cl)c(O)c(Cl)c2)o1 [Compound 6] as well.
Result :: 14.6

Query :: Please do the same for O=C(c1nnc(-c2cc(Cl)c(O)c(Cl)c2)o1)N1CCN(c2cccc(C(F)(F)F)c2)CC1 [Compound 4] as well.
Result :: 16.9

Query :: Please do the same for CC(C)(C)c1ccc(CNC(=O)c2nnc(-c3ccc(NS(=O)(=O)C(F)(F)F)cc3)o2)cc1 [Compound 20] as well.
Result :: 12.7

Query :: Please do the same for O=C(NCc1ccc(OC(F)(F)F)cc1)c1nnc(-c2cc(Cl)c(O)c(Cl)c2)o1 [Compound 22] as well.
Result :: 14.3

Query :: Please do the same for CC(NC(=O)c1nnc(-c2cc(Cl)c(O)c(Cl)c2)o1)c1ccc(Cl)cc1 (stereo not drawn) [Compound 26] as well.
Result :: 27.8
